Reference source for all entries: PubChem BioAssay (EPA / NIEHS)

Read-out: Macrophage colony-stimulating factor (MCSF), CSF1 (gene 1435)
Assay: BSK_LPS_MCSF: BioMAP Diversity Plus: LPS Assay for Macrophage colony-stimulating factor (MCSF) Biomarker Activity (AID 2283083)
Details: primary human HUVEC with PBMC; actives raise or lower the signal
Procedure: BSK_LPS is a cell-based, multiplexed-readout assay that uses umbilical vein endothelium and peripheral blood mononuclear cells, a human vascular primary cell co-culture, with measurements taken at 24 hours after chemical dosing in a 96-well plate.BSK_LPS_MCSF is an assay component measured in the BSK_LPS assay. It measures M-CSF antibody related to regulation of gene expression using ELISA technology.Data from the assay component BSK_LPS_MCSF was analyzed into 1 assay endpoint. […]
The source made the active and inactive calls. How the source made its calls: active means hit-call score of the fitted dose curve at least 0.9, where 1 is the maximum; inactive means score below 0.9.
value-type: outcome

# count of solved cases: 4
{"columns": ["molecule", "outcome"],
 "data": [
  ["OCC(F)(F)OC(F)(F)C(F)(F)OC(F)(F)C(F)(F)OC(F)(F)F", "inactive"],
  ["OCC1CO1 (centres undefined)", "inactive"],
  ["CCC(C)(C)c1ccc(O)cc1", "inactive"],
  ["O=[N+]([O-])c1ccc(Cl)c(Cl)c1", "inactive"]
]}

Exercise: Item CC(Cc1ccc(OCC(=O)O)cc1)NCC(O)c1csc(C(F)(F)F)n1 (centres undefined) has what recorded outcome?
Solution: inactive

Exercise: What outcome value was documented for this molecule, O=C(O)C(F)(OC(F)(F)C(F)(F)C(F)(F)F)C(F)(F)F (centres undefined) ?
Solution: inactive

Exercise: Reported outcome for Cc1ccc(N)cc1N : what is it?
Solution: inactive

Exercise: Sample COP(N)(=S)OC — what was its outcome?
Solution: inactive

Exercise: Entry O=C(O)C(Cl)Cl : reported outcome = ?
Solution: inactive

Exercise: What does the data say about its outcome? Entry: CN(C)C(=O)Cl
Solution: inactive

Exercise: Quick one: outcome for Nc1ccc(Cl)cc1 ?
Solution: inactive

Exercise: What value of outcome has been reported for the following molecule? Nc1cc2c3c(c1)C(c1ccccc1)=N[C@@H](NC(=O)c1cccnc1)C(=O)N3CC2
Solution: inactive

Exercise: Sample N#Cc1c(-c2ccc(Cl)cc2)[nH]c(C(F)(F)F)c1Br — what was its outcome?
Solution: inactive

Exercise: # outcome lookup, item c1nc[nH]n1
Solution: inactive
